Reference for the values: patent US7772260B2

experimental.target: CA II (Homo sapiens, UniProt P00918)
assay.info: CA II inhibition
Format: biochemical
experimental.setup: read-out: CAII(50)
measurement.label: IC50 (nM)
Value expressed in nM; do not type the unit.

Need IC50, item NS(=O)(=O)c1nn2cc(-c3ccccc3)nc2s1
250

---

Recorded measurements of log10(IC50), one per entry
experimental.target: CA II (Homo sapiens)
assay.info: CA II inhibition
Type: biochemical
experimental.setup: read-out: IC(50), CA II inhibition
Scale: decimal log of IC50, IC50 in nM.

NS(=O)(=O)c1nn2cc(-c3ccc(C(=O)O)cc3)nc2s1	2.19
COc1ccccc1-c1cn2nc(S(N)(=O)=O)sc2n1	2.18
COc1ccccc1-c1ccc(-c2cn3nc(S(N)(=O)=O)sc3n2)cc1	2.64
NS(=O)(=O)c1nn2cc(-c3ccc(Oc4ccc([N+](=O)[O-])cc4)cc3)nc2s1	2.96
CN(C)S(=O)(=O)c1nn2cc(-c3ccccc3)nc2s1	4.05

Which measured log10(IC50) value corresponds to COc1ccc(-c2cn3nc(S(N)(=O)=O)sc3n2)cc1 ?
2.25

Then what about the compound NS(=O)(=O)c1nn2cc(-c3c(F)c(F)c(SCc4ccccc4)c(F)c3F)nc2s1 ?
3.17

Follow-up entry: CCCCN(CCCC)S(=O)(=O)c1nn2cc(-c3cccc(OC)c3)nc2s1
4.78
